# Test system: HOP-62 NSCLC
# testProtocol: NCI tumour cell line growth inhibition, 48 h
reportedEndpoint: TGI (µM)

>  <compound>
CC(=O)NC1C(OCc2ccccc2)OC(CO)C(O)C1OCC(=O)NC(C)C(=O)NC(CCC(=O)NCCCCCC(=O)Nc1ccc2c(c1)CN1C(=O)c3ccccc3C1=N2)C(N)=O (stereo not given)

>  <relationSign>
>

>  <recordedResult>
100

$$$$
>  <compound>
CN(C)c1nc(N(C)C)nc(N(C)CN(C)c2nc(N(C)C)nc(N(C)C)n2)n1

>  <relationSign>
>

>  <recordedResult>
100

$$$$
>  <compound>
CC(C)OC(=O)c1ccc(CCC2=CC(=O)C(Br)=CC2=O)cc1

>  <relationSign>
=

>  <recordedResult>
63.1

$$$$
>  <compound>
O=C(NCCO)c1c(O)c2ccccc2[nH]c1=O

>  <relationSign>
>

>  <recordedResult>
100

$$$$
>  <compound>
CSc1nc(Cl)c(Br)c(Nc2c[nH]c(=O)[nH]c2=O)n1

>  <relationSign>
=

>  <recordedResult>
53.5

$$$$

====

# Test system: MOLT-4 leukemia
# testProtocol: NCI tumour cell line growth inhibition, 48 h; in the data active = GI50 below about 0.43 µM; inactive = the rest
Outcome codes: t (active), f (inactive)

>  <compound>
O=C1OCC2=C1C(c1cccc(F)c1)c1cc3c(cc1N2CCO)OCCO3 (stereo unspecified)

>  <classification>
t

$$$$
>  <compound>
O=C1NC(=O)c2c1c1c3ccccc3ccc1c1[nH]c3ccc(Br)cc3c21

>  <classification>
f

$$$$
>  <compound>
COC(=O)Nc1nc2c(OC)c(OC)c(OC)cc2[nH]1

>  <classification>
f

$$$$
>  <compound>
O=C1C=C(N2CC2)c2ccccc2C1=O

>  <classification>
f

$$$$
>  <compound>
Cn1cc(-c2csc(-c3cn(CCN4CCOCC4)c4ccc(F)cc34)n2)c2cccnc21

>  <classification>
f

$$$$
>  <compound>
Cc1cc(N(CCCNc2ccnc3cc(Cl)ccc23)Cc2cccs2)nc(Cl)n1

>  <classification>
f

$$$$

====

# Test system: NCI-H226 lung
# testProtocol: NCI tumour cell line growth inhibition, 48 h

>  <molecule>
CCC(=N\NC(N)=S)/C(C)=N/O

>  <TGI>
> 100 µM

$$$$
>  <molecule>
C/C1=C\CC[C@@](C)(O)[C@H]2C[C@H](CC/C(C)=C/CC1)C1(CC1)C(=O)O2

>  <TGI>
46.5 µM

$$$$
>  <molecule>
N#CC1N(C(=O)c2ccc(F)cc2)c2ccccc2N1C(=O)c1ccc(F)cc1

>  <TGI>
> 100 µM

$$$$
>  <molecule>
COC(=O)Nc1nc2c(OC)c(OC)c(OC)cc2[nH]1

>  <TGI>
> 100 µM

$$$$
>  <molecule>
c1ccc(C(=NNc2nc3ccccc3[nH]2)c2ccccn2)nc1

>  <TGI>
0.448 µM

$$$$
>  <molecule>
Clc1ccc(OCC2NC3C=CC32)cn1 (stereo not drawn)

>  <TGI>
> 100 µM

$$$$
>  <molecule>
CC(O)(c1ccccc1)c1nccc2ccccc12 (stereo not drawn)

>  <TGI>
> 100 µM

$$$$
>  <molecule>
COc1ccc2oc(-c3ccncc3)cc(=O)c2c1

>  <TGI>
> 100 µM

$$$$

====

# Test system: NCI-H522 lung
# testProtocol: NCI tumour cell line growth inhibition, 48 h; in the data active means GI50 below about 0.43 µM; inactive means the rest
Outcome codes: active, inactive

>  <compound>
NC(=O)Nc1ccc2ncnc(Nc3ccc(Cl)cc3)c2c1

>  <classification>
inactive

$$$$
>  <compound>
O=C1OCC2=C1C(c1cccc(F)c1)c1cc3c(cc1N2CCO)OCCO3 (stereo unspecified)

>  <classification>
active

$$$$
>  <compound>
CC12C=CC(C)(O1)C1C2c2ccccc2S1(=O)=O (stereo unspecified)

>  <classification>
inactive

$$$$
>  <compound>
CN(C)CCCNC(=O)c1cc2c3ccccc3[nH]c2c2ncccc12

>  <classification>
inactive

$$$$
>  <compound>
C/C1=C\CC[C@@](C)(O)[C@H]2C[C@H](CC/C(C)=C/CC1)C1(CC1)C(=O)O2

>  <classification>
inactive

$$$$
>  <compound>
Clc1ccccc1-c1nc2ccccc2[nH]1

>  <classification>
inactive

$$$$
>  <compound>
COC(=O)c1[nH]nc(-c2ccccc2)c1N1CCCCC1

>  <classification>
inactive

$$$$
>  <compound>
CCC[CH2][Sn]1([CH2]CCC)[O]C(=O)C[S]1

>  <classification>
active

$$$$
>  <compound>
NC1=CC(=O)C(=O)c2cccnc21

>  <classification>
inactive

$$$$
>  <compound>
COc1cc(Nc2ncc3c(n2)-c2ccc(Cl)cc2C(c2c(F)cccc2OC)=NC3)ccc1C(=O)O

>  <classification>
inactive

$$$$
>  <compound>
Cc1c(N2C(=O)/C(=C\c3ccc(O)cc3)N=C2c2ccccc2)c(=O)n(-c2ccccc2)n1C

>  <classification>
inactive

$$$$
>  <compound>
Cn1cc(-c2csc(-c3cn(CCN4CCOCC4)c4ccc(F)cc34)n2)c2cccnc21

>  <classification>
inactive

$$$$
>  <compound>
c1ccc(-c2n(Cc3ccc4ccccc4n3)c3ccccc3[n+]2Cc2ccc3ccccc3n2)cc1

>  <classification>
active

$$$$
>  <compound>
Cc1sc2nc(-c3ccccn3)c(/C=N/N=C(N)N)n2c1C

>  <classification>
inactive

$$$$
>  <compound>
O=C1C=C(N2CC2)c2ccccc2C1=O

>  <classification>
inactive

$$$$
>  <compound>
c1ccc(Cn2cc3c(c2)-c2oncc2CC3)cc1

>  <classification>
inactive

$$$$

====

# TGI values compiled below
# Tested on: HOP-62 NSCLC
# testProtocol: NCI tumour cell line growth inhibition, 48 h
Where a SMILES comes first, the peptide text is derived from it. [ ]: non-standard residue; d: D form. The star is where a group is joined. NMeF = CN[CH](Cc1ccccc1)C(=O)O; NMeV = CN[CH](C(=O)O)C(C)C; Boc = CC(C)(C)OC(=O)*; OBn = c1ccc(CO*)cc1

>  <molecule>
CC(C)C(NC(=O)OC(C)(C)C)C(=O)N(C)C(Cc1ccccc1)C(=O)N(C)C(C(=O)N(C)C(C(=O)OCc1ccccc1)C(C)C)C(C)C (centres undefined) (Boc-V[NMeF][NMeV][NMeV]-OBn; configuration not given here)

>  <TGI>
> 100 µM

$$$$
>  <molecule>
O=C1CC(c2ccccc2)Cc2nc3ccc(Cl)cc3cc21 (centres undefined)

>  <TGI>
> 100 µM

$$$$
>  <molecule>
Sc1nnc(-c2ccccc2Nc2ccccc2-c2nnc(S)n2-c2ccccc2)n1-c1ccccc1

>  <TGI>
> 100 µM

$$$$
>  <molecule>
O=C1c2ccccc2C2(c3ccc(Cl)cc3)NCc3ccccc3CN12 (centres undefined)

>  <TGI>
30.5 µM

$$$$
>  <molecule>
O=C1C2C(C(=O)[N]1[Hg][c]1ccccc1)C1(Cl)C(Cl)=C(Cl)C2(Cl)C1(Cl)Cl (centres undefined)

>  <TGI>
19.2 µM

$$$$
>  <molecule>
CC(=O)Oc1ccc(OC(Oc2ccccc2)c2ccccc2)cc1 (centres undefined)

>  <TGI>
> 100 µM

$$$$
>  <molecule>
Brc1cccc(C2(CCCC3(c4cccc(Br)n4)OCCO3)OCCO2)n1

>  <TGI>
> 100 µM

$$$$
>  <molecule>
N/C(=N\Nc1nc2cc([N+](=O)[O-])ccc2o1)c1ccccn1

>  <TGI>
2.8 µM

$$$$
>  <molecule>
N#CC1N(C(=O)c2ccc(F)cc2)c2ccccc2N1C(=O)c1ccc(F)cc1

>  <TGI>
> 100 µM

$$$$

====

# TGI values compiled below
# Test system: SK-MEL-5 melanoma
# testProtocol: NCI tumour cell line growth inhibition, 48 h

>  <compound>
Cn1c(=O)c(C(c2ccccc2)c2c(O)c3ccccc3n(C)c2=O)c(O)c2ccccc21

>  <testedOn>
SK-MEL-5 melanoma

>  <TGI>
> 100 µM

$$$$
>  <compound>
C[C@]12CCC(=O)C=C1CC[C@@H]1[C@@H]2C(=O)C[C@@]2(C)[C@H]1CC[C@]2(O)C(=O)CO

>  <testedOn>
SK-MEL-5 melanoma

>  <TGI>
> 100 µM

$$$$
>  <compound>
O=c1c2c([nH]c3cc4c(cc13)OCO4)-c1ccccc1CCC2

>  <testedOn>
SK-MEL-5 melanoma

>  <TGI>
> 50 µM

$$$$
>  <compound>
CC1NOC(NS(=O)(=O)c2ccc(N=Nc3c(O)c(C(=O)O)cc4ccccc34)cc2)C1C (centres undefined)

>  <testedOn>
SK-MEL-5 melanoma

>  <TGI>
> 100 µM

$$$$
>  <compound>
Sc1nnc(-c2ccccc2Nc2ccccc2-c2nnc(S)n2-c2ccccc2)n1-c1ccccc1

>  <testedOn>
SK-MEL-5 melanoma

>  <TGI>
80.9 µM

$$$$
>  <compound>
COc1ccc2[nH]c(C(=O)N3CC(CCl)c4ccc([N+](=O)[O-])cc43)cc2c1 (centres undefined)

>  <testedOn>
SK-MEL-5 melanoma

>  <TGI>
> 100 µM

$$$$
>  <compound>
Cc1cc(-c2ccccc2)c(C)n1Cc1ccc(Cl)cc1

>  <testedOn>
SK-MEL-5 melanoma

>  <TGI>
66.8 µM

$$$$
>  <compound>
COc1ccc2nc(-c3ccccc3)cc(Nc3ccc(/C(C)=N/O)cc3)c2c1

>  <testedOn>
SK-MEL-5 melanoma

>  <TGI>
7.57 µM

$$$$
>  <compound>
CC(C)C(/C=C/c1ccccc1)=N\NC(=O)N/N=C(/C=C/c1ccccc1)C(C)C

>  <testedOn>
SK-MEL-5 melanoma

>  <TGI>
53.7 µM

$$$$
